Each record here notes measured pIC50.
TARGET OR TEST SYSTEM: Recombinant human Bcl-xL with a 25 amino acid truncation of its C-terminus (human) (UniProt Q07817)
Sequence (Q07817 1-208): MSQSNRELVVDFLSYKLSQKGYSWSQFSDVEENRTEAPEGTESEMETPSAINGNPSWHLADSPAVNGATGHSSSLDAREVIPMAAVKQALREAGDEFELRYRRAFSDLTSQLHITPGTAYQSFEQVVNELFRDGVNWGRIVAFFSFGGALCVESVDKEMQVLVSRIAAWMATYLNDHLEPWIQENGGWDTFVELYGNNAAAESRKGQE
ASSAY REMARKS: competition phage ELISA
Interpret pIC50 as the negative base-10 log of the concentration measured in mol/L.

NLWAAQRYGRELRRASDEFVDSFKKG [Bad BH3 M15A, phage-displayed]
8.22
QEDIIRAIARHLAQVGDSMDRSIPPG [Bid BH3 N7A, phage-displayed]
8.00
PSSTAGQVGRQLAIIGDDINRRYDSE [Bak BH3 M5A, phage-displayed]
7.82
NLWAAQRAGRELRRMSDEFVDSFKKG [Bad BH3 Y8A, phage-displayed]
8.15

Now take the following binder into account.
Q: Value lookup for pIC50; key = QEDIIRNIARALAQVGDSMDRSIPPG [Bid BH3 H11A, phage-displayed]
Result: 8.05
